Target: recombinant rat GluN1/GluN2C receptors (NR2C) (Rattus norvegicus (Rat), UniProt P35439+Q00961)
Sequence (Q00961 20-1237, other chains not shown): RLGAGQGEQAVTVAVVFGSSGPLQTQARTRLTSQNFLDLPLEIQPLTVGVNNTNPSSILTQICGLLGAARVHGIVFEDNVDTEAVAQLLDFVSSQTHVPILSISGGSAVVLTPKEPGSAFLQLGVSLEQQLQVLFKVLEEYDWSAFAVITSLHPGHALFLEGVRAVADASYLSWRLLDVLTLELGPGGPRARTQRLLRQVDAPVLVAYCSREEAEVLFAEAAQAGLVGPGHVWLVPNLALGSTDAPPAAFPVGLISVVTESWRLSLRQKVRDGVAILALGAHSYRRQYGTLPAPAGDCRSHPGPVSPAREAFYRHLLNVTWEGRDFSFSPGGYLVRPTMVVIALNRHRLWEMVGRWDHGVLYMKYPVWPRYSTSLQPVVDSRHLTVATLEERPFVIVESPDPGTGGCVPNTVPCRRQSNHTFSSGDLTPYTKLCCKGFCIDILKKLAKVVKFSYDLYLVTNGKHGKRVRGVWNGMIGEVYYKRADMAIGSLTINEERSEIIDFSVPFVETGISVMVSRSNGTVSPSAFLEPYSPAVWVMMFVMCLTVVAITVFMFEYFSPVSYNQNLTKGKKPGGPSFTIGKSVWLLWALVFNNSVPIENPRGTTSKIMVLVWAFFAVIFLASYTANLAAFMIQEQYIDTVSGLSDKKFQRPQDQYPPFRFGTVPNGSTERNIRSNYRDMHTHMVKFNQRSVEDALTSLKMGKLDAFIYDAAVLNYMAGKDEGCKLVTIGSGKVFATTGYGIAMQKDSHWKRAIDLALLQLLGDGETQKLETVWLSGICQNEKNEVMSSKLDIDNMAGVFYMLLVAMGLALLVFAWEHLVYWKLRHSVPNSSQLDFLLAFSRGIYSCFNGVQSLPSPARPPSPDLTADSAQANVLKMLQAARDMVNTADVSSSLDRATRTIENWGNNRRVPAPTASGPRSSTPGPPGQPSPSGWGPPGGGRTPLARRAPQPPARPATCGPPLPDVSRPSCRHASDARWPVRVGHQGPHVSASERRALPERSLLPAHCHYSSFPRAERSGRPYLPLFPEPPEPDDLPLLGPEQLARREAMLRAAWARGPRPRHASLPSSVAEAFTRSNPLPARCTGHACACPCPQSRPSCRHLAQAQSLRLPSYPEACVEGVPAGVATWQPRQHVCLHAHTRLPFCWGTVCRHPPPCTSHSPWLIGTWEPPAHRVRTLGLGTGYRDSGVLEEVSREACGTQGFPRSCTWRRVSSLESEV
Test: Two-electrode voltage-clamp recordings, Xenopus laevis oocytes, NR2C
Assay type: cell-based
Settings: head prints IC50; method describes EC50 of potentiator
Catalogue of EC50 (potentiation) readings, one per entry.
Hi! Could you send only the number? It should be in µM, unit omitted.

>  <compound>
CCOC(=O)c1ccc(C2C(C(=O)c3cccnc3)=C(O)C(=O)N2CCc2c[nH]c3cc(C)ccc23)cc1 (centres unmarked)

>  <measurement.name>
EC50 (potentiation)

>  <obs.value>
7

$$$$
>  <compound>
COC(=O)c1ccc(C2C(C(=O)c3ccccc3Cl)=C(O)C(=O)N2CCc2c[nH]c3ccccc23)cc1 (centres unmarked)

>  <measurement.name>
EC50 (potentiation)

>  <obs.value>
26

$$$$
>  <compound>
COC(=O)c1ccc(C2C(C(=O)c3cccc(O)c3)=C(O)C(=O)N2CCc2c[nH]c3ccccc23)cc1 (centres unmarked)

>  <measurement.name>
EC50 (potentiation)

>  <obs.value>
5

$$$$

Query: For COC(=O)c1ccc(C2C(C(=O)c3ccncc3)=C(O)C(=O)N2CCc2cccc3ccccc23)cc1 (centres unmarked) , what is its reported EC50 (potentiation)?
Result: 11

* * *

Biological target: recombinant rat GluN1/GluN2B receptors (NR2B) (Rattus norvegicus (Rat), UniProt P35439+Q00960)
Sequence (Q00960 27-1482, other chains not shown): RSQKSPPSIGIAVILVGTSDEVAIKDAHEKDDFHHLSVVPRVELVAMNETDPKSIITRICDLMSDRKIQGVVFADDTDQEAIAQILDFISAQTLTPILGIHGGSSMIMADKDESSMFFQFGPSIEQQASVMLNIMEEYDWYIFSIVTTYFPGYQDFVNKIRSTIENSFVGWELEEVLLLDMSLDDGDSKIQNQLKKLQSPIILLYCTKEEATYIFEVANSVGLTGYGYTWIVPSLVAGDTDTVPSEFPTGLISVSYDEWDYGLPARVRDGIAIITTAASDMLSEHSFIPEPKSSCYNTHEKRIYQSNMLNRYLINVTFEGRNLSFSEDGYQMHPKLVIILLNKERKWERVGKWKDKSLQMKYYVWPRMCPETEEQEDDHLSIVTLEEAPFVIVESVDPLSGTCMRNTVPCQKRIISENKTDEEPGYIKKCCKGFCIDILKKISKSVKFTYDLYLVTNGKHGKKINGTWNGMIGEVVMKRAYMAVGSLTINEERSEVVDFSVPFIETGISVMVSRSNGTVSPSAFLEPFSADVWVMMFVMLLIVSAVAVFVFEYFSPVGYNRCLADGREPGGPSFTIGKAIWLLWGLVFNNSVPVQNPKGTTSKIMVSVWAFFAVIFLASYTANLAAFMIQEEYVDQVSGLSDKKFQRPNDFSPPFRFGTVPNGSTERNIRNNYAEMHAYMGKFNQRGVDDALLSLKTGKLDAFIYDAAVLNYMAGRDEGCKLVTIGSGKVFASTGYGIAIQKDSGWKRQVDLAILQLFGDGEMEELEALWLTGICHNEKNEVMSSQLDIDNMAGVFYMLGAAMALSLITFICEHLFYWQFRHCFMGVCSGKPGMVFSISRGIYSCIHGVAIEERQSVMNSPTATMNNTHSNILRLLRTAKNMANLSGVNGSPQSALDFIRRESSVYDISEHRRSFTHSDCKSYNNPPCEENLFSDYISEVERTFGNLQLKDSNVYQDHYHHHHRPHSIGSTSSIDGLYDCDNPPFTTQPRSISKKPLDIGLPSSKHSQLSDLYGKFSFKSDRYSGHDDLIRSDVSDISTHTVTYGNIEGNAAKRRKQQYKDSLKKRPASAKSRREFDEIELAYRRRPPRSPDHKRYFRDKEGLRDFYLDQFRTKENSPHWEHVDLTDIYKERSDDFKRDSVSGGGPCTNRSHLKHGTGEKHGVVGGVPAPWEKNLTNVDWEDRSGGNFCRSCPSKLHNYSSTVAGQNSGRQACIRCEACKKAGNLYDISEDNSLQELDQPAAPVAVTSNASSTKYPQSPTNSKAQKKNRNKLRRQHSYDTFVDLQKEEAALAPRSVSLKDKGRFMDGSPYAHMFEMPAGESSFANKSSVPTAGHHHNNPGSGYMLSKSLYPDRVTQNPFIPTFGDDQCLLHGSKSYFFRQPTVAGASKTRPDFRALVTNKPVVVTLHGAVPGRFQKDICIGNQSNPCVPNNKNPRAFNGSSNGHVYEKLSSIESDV
Assay: Two-electrode voltage-clamp recordings, Xenopus laevis oocytes, NR2B
Format: cell-based
Details: current in the absence of compound = 100%, 100 μM glutamate plus 30 μM glycine, read-out: NR2B response
Reported activity at 100 µM values follow for various compounds
Answer format: numeric, % implied, no suffix.

>  <compound>
COC(=O)c1ccc(C2C(C(C)=O)=C(O)C(=O)N2CCc2c[nH]c3ccccc23)c(O)c1 (stereo not shown)

>  <obs.value>
77

$$$$

Query: For CCOC(=O)c1ccc(C2C(C(=O)c3cccnc3)=C(O)C(=O)N2CCc2c[nH]c3cc(C)ccc23)cc1 (stereo not shown) , what is its reported activity at 100 µM?
Result: 61

Query: Requested field: activity at 100 µM. Item: CCOC(=O)c1ccc(C2C(C(C)=O)=C(O)C(=O)N2CCc2c(C)[nH]c3ccccc23)cc1 (stereo not shown)
Result: 79

Query: Entry under review: COC(=O)c1ccc(C2C(C(=O)c3cccnc3)=C(O)C(=O)N2CCc2c[nH]c3cc(F)ccc23)cc1 (stereo not shown) . Reported activity at 100 µM?
Result: 37

* * *

Biological target: recombinant rat GluN1/GluN2B receptors (NR2B) (Rattus norvegicus (Rat), UniProt P35439+Q00960)
Experiment: Two-electrode voltage-clamp recordings, Xenopus laevis oocytes, NR2B
Format: cell-based
Conditions: current in the absence of compound = 100%, 100 μM glutamate plus 30 μM glycine, read-out: NR2B response
Decision: activity at 100 µM compared against 80%; not below it gives Criterion met, below it gives Criterion not met.

>  <molecule>
CCOC(=O)c1ccc(C2C(C(C)=O)=C(O)C(=O)N2CCc2c[nH]c3ccccc23)cc1 (stereo not drawn)

>  <category.label>
Criterion not met

$$$$
>  <molecule>
CCOC(=O)c1ccc(C2C(C(=O)c3ccncc3)=C(O)C(=O)N2CCc2c[nH]c3cc(C)ccc23)cc1 (stereo not drawn)

>  <category.label>
Criterion not met

$$$$

Query: Please check the record COC(=O)c1ccc(C2C(C(=O)c3cccnc3)=C(O)C(=O)N2CCc2c[nH]c3cc(Cl)ccc23)cc1 (stereo not drawn) and state if its activity at 100 µM is at or above 80%.
Result: Criterion not met

Query: activity at 100 µM >= 80% for COC(=O)c1ccc(C2C(C(=O)c3ccncc3)=C(O)C(=O)N2CCc2ccncc2)cc1 (stereo not drawn) ?
Result: Criterion met

Query: Please indicate if the recorded activity at 100 µM for O=C(C1=C(O)C(=O)N(CCc2c[nH]c3ccccc23)C1c1cccs1)c1cccnc1 (stereo not drawn) meets or exceeds 80%.
Result: Criterion not met

Query: Record COC(=O)c1ccc(C2C(C(=O)c3ccncc3)=C(O)C(=O)N2CCc2c[nH]cn2)cc1 (stereo not drawn) ; criterion: activity at 100 µM no lower than 80%. Met?
Result: Criterion met

* * *

Biological target: recombinant rat GluN1/GluN2D receptors (NR2D) (Rattus norvegicus (Rat), UniProt P35439+Q62645)
Sequence (Q62645 28-1323, other chains not shown): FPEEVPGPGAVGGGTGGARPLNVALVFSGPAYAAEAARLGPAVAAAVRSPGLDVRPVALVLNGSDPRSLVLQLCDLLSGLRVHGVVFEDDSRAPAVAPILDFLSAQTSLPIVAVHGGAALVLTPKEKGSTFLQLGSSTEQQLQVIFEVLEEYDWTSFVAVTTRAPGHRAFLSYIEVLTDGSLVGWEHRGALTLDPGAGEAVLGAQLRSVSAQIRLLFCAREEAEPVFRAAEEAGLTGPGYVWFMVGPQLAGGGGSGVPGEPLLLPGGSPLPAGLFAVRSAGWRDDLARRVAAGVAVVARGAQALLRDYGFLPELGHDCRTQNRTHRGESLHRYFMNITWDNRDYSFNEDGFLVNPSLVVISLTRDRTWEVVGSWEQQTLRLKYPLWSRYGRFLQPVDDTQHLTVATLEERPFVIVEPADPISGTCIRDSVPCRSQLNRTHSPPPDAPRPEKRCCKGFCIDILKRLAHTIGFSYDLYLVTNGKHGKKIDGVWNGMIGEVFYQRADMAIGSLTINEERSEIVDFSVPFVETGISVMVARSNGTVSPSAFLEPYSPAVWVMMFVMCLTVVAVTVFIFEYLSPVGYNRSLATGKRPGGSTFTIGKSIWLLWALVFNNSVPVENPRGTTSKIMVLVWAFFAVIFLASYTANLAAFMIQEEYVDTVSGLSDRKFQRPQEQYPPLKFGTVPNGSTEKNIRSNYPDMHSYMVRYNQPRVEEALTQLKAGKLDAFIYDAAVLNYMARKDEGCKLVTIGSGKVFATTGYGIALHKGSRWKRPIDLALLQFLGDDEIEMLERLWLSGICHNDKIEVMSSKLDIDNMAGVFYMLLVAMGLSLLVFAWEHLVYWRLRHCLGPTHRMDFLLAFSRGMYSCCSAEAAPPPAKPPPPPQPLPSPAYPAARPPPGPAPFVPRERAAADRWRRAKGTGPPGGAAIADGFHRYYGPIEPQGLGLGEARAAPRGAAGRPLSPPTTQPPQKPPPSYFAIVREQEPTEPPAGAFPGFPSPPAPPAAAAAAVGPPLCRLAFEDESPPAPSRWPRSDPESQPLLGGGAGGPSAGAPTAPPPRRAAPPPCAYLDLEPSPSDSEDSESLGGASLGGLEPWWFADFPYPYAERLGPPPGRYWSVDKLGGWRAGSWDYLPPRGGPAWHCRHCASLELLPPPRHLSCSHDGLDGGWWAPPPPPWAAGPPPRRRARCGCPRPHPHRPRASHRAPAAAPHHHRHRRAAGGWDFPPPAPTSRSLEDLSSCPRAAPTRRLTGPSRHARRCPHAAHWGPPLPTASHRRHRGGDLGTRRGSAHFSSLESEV
Experiment: Two-electrode voltage-clamp recordings, Xenopus laevis oocytes, NR2D
Format: cell-based
Conditions: current in the absence of compound = 100%, 100 μM glutamate plus 30 μM glycine, read-out: NR2D response
measurement.name: activity at 100 µM (%)
The figure you give is taken to be in %; do not add the unit.

Below, each entry is followed by its recorded activity at 100 µM result.
>  <molecule>
CCOC(=O)c1ccc(C2C(C(=O)c3ccncc3)=C(O)C(=O)N2CCc2c[nH]c3cc(C)ccc23)cc1 (stereo not shown)

>  <measurement.name>
activity at 100 µM

>  <obs.value>
73

$$$$
>  <molecule>
COC(=O)c1ccc(C2C(C(C)=O)=C(O)C(=O)N2CCc2c[nH]c3ccccc23)c(O)c1 (stereo not shown)

>  <measurement.name>
activity at 100 µM

>  <obs.value>
79

$$$$
>  <molecule>
COC(=O)c1ccc(C2C(C(=O)c3ccncc3)=C(O)C(=O)N2CCc2ccncc2)cc1 (stereo not shown)

>  <measurement.name>
activity at 100 µM

>  <obs.value>
95

$$$$
>  <molecule>
COC(=O)c1ccc(C2C(C(=O)c3cccnc3)=C(O)C(=O)N2CCc2c[nH]c3cc(Cl)ccc23)cc1 (stereo not shown)

>  <measurement.name>
activity at 100 µM

>  <obs.value>
61

$$$$
>  <molecule>
COC(=O)c1ccc(C2C(C(=O)c3ccncc3)=C(O)C(=O)N2CCc2c[nH]cn2)cc1 (stereo not shown)

>  <measurement.name>
activity at 100 µM

>  <obs.value>
90

$$$$
>  <molecule>
COC(=O)c1ccc(C2C(C(=O)c3cccnc3)=C(O)C(=O)N2CCc2c[nH]c3cc(C)ccc23)cc1 (stereo not shown)

>  <measurement.name>
activity at 100 µM

>  <obs.value>
64

$$$$

Query: Return reported activity at 100 µM; argument: COC(=O)c1ccc(C2C(C(C)=O)=C(O)C(=O)N2CCc2c[nH]c3ccccc23)c(OC)c1 (stereo not shown)
Result: 99

* * *

Target: recombinant rat GluN1/GluN2A receptors (NR2A) (Rattus norvegicus (Rat), UniProt P35439+Q00959)
Assay: Two-electrode voltage-clamp recordings, Xenopus laevis oocytes, NR2A
Format: cell-based
Settings: current in the absence of compound = 100%, 100 μM glutamate plus 30 μM glycine, read-out: NR2A response
measurement.name: activity at 100 µM

>  <compound>
CCOC(=O)c1ccc(C2C(C(=O)c3ccncc3)=C(O)C(=O)N2CCc2c[nH]c3cc(C)ccc23)cc1 (stereo not shown)

>  <measurement.name>
activity at 100 µM

>  <obs.value>
99%

$$$$
>  <compound>
COC(=O)c1ccc(C2C(C(=O)c3ccncc3)=C(O)C(=O)N2CCc2c[nH]cn2)cc1 (stereo not shown)

>  <measurement.name>
activity at 100 µM

>  <obs.value>
97%

$$$$
>  <compound>
COC(=O)c1ccc(C2C(C(=O)c3ccncc3)=C(O)C(=O)N2CCc2c[nH]c3ccccc23)cc1 (stereo not shown)

>  <measurement.name>
activity at 100 µM

>  <obs.value>
78%

$$$$
>  <compound>
COC(=O)c1ccc(C2C(C(=O)c3cccnc3)=C(O)C(=O)N2CCc2c[nH]c3cc(Cl)ccc23)cc1 (stereo not shown)

>  <measurement.name>
activity at 100 µM

>  <obs.value>
83%

$$$$
>  <compound>
CCOC(=O)c1ccc(C2C(C(C)=O)=C(O)C(=O)N2CCc2c[nH]c3ccccc23)cc1 (stereo not shown)

>  <measurement.name>
activity at 100 µM

>  <obs.value>
96%

$$$$

Query: Reported activity at 100 µM, compound COC(=O)c1ccc(C2C(C(=O)c3cccnc3)=C(O)C(=O)N2CCc2c[nH]c3cc(C)ccc23)cc1 (stereo not shown) : ____
Result: 91%

Query: Given the entry CCOC(=O)c1ccc(C2C(C(=O)c3cccnc3)=C(O)C(=O)N2CCc2c[nH]c3cc(C)ccc23)cc1 (stereo not shown) , report its measured activity at 100 µM.
Result: 74%

* * *

Measured EC50 (potentiation), listed per entry for reference.
Target: recombinant rat GluN1/GluN2C receptors (NR2C) (Rattus norvegicus (Rat), UniProt P35439+Q00961)
Assay: Two-electrode voltage-clamp recordings, Xenopus laevis oocytes, NR2C
Type: cell-based
Conditions: head prints IC50; method describes EC50 of potentiator
Hi! Could you send only the number? It should be in µM, unit omitted.

Study these solved cases before continuing.
>  <molecule>
COC(=O)c1ccc(C2C(C(C)=O)=C(O)C(=O)N2CCc2c[nH]c3ccccc23)c(OC)c1 (stereo not shown)

>  <EC50 (potentiation), µM>
20

$$$$
>  <molecule>
CCOC(=O)c1ccc(C2C(C(C)=O)=C(O)C(=O)N2CCc2c[nH]c3ccccc23)cc1 (stereo not shown)

>  <EC50 (potentiation), µM>
15

$$$$

Query: Sample COC(=O)c1ccc(C2C(C(=O)c3cccnc3)=C(O)C(=O)N2CCc2c[nH]c3cc(C)ccc23)cc1 (stereo not shown) — what was its EC50 (potentiation)?
Result: 4
